Source: ChEMBL document CHEMBL1201862

molecular target: Sentrin-specific protease 6 (Homo sapiens, UniProt Q9GZR1); test: SAR Analysis of small molecule inhibitors of Sentrin-specific protease 6 (SENP6) using a Luminescent assay. [Related pubchem assays (depositor defined):AID2582, AID2599]; type: functional
Sequence (Q9GZR1 whole entry): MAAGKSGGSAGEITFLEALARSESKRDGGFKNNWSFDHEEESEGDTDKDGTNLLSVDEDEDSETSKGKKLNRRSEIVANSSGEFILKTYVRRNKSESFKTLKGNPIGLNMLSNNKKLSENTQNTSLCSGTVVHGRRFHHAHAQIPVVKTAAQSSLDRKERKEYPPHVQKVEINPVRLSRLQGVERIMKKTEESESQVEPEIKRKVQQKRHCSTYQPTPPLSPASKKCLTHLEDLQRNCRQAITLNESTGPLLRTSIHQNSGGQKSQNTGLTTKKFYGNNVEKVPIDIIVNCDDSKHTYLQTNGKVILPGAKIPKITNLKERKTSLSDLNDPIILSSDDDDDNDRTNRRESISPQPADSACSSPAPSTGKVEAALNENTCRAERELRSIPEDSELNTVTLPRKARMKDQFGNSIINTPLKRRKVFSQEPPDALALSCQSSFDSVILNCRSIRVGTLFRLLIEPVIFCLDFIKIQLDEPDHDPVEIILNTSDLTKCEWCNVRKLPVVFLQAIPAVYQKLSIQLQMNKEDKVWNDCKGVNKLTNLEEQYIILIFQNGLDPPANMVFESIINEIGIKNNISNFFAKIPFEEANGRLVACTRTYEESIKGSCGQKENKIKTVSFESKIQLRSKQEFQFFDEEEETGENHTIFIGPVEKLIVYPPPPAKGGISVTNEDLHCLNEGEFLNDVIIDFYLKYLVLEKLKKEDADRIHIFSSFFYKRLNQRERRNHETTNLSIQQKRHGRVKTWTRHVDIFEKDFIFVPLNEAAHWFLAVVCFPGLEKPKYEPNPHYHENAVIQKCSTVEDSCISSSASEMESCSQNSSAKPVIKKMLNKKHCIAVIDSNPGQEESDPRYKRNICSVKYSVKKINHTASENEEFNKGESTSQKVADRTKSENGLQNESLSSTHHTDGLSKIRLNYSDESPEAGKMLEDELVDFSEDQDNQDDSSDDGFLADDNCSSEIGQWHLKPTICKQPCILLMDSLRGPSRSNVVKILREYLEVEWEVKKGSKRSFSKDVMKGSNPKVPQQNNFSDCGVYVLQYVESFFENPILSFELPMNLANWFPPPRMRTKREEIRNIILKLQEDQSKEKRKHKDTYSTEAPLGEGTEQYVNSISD
The source made the active and inactive calls.
Returns: one label drawn from yes for active, no for inactive

Observe how each entry below is paired with its result.
CC1CCc2c(sc(NC(=O)c3ccc(Cn4cc(Br)cn4)o3)c2C(N)=O)C1 (centres undefined) = no
CCCCc1ccc2nc(NC(=O)c3ccco3)sc2c1 = yes
COc1ccc(N/N=C/c2c[nH]c3ccccc23)cc1 = yes

API: the following record is the query input.
Task: What outcome does the record of this test show for COc1cccc(-c2noc(/C=C/c3ccccc3Cl)n2)c1 ?
Result: yes

* * *

Quick reference for CC50 among some compounds
system: Vero; assay: cells; format: functional; settings: Chlorocebus sabaeus
Active and inactive are the calls of the source.

Guide cases for CC50, answers given:
O=C(Nc1ccccc1C(F)(F)F)N1CCN(c2ccc3nnc(-c4ccc(F)cc4)n3n2)CC1 = > 25 µM (active)
O[C@@H]1[C@@H](O)C=C2CCN3Cc4cc5c(cc4[C@H]1C23)OCO5 (stereo partly specified) = 5.86 µM (active)
Oc1ccc(N=Nc2ccccc2C(F)(F)F)c2cccnc12 = 4.62 µM (active)
O=C(Nc1nc2ccccc2n1CCOc1ccc(Cl)cc1)c1ccco1 = 14 µM (active)
COc1cc(OC)c(NC(=O)C(=O)CC(=O)c2ccc(C)cc2C)cc1Cl = 9.4 µM (active)

# next compound below
Task: Tell me its CC50 given Cn1c(/C=C/c2ccc(Br)cc2)c([N+](=O)[O-])c(=O)n(C)c1=O as the entry.
Result: 12.1 µM (active)

* * *

biological target: Ubiquitin-conjugating enzyme E2 N (Homo sapiens); assay type: functional
Sequence (P61088 whole entry): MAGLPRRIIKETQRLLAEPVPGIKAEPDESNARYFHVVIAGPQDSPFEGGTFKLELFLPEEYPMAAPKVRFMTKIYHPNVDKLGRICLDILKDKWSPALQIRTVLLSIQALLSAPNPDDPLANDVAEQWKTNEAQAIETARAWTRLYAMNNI
The source made the active and inactive calls.
IC50 values, listed per item

Task: Report value only: IC50, Ubiquitin-conjugating enzyme E2 N (Homo sapiens), CCCCCCSc1cc(-c2nc3cc(C)ccn3c2NC2CCCCC2)ccc1OC
Result: > 20 µM (inactive)

Task: Provide IC50, recorded with Ubiquitin-conjugating enzyme E2 N (Homo sapiens), of Cc1ccc2[nH]c(O)c(/N=N/C(=N)S)c2c1
Result: > 20 µM (inactive)

Task: Under Ubiquitin-conjugating enzyme E2 N (Homo sapiens), report IC50 for CC1=CC(C)(C)n2c(O)c(/N=N/C(=N)S)c3cccc1c32
Result: 6.09 µM (active)

Task: Write IC50 of O=[N+]([O-])c1ccc2[nH]c(O)c(N=NC(S)=NCC3CCCO3)c2c1 (stereo unspecified) ; system used: Ubiquitin-conjugating enzyme E2 N (Homo sapiens)
Result: 15.9 µM (active)

Task: // output IC50; input COc1cccc2sc(N(CCCN(C)C)C(=O)c3sc4ccccc4c3Cl)nc12 ; system Ubiquitin-conjugating enzyme E2 N (Homo sapiens);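 also: Dose-response confirmation in a TR-FRET assay detecting UBC13-driven polyubiquitin chain formation, inhibition measured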
Result: > 20 µM (inactive)

Task: Under Ubiquitin-conjugating enzyme E2 N (Homo sapiens), report IC50 for Cc1ccc(S(=O)(=O)n2cc(C=O)c3ccccc32)cc1
Result: 9.59 µM (active)

* * *

Molecular target: Protein RecA (Mycobacterium tuberculosis)
Sequence (P9WHJ3 whole entry): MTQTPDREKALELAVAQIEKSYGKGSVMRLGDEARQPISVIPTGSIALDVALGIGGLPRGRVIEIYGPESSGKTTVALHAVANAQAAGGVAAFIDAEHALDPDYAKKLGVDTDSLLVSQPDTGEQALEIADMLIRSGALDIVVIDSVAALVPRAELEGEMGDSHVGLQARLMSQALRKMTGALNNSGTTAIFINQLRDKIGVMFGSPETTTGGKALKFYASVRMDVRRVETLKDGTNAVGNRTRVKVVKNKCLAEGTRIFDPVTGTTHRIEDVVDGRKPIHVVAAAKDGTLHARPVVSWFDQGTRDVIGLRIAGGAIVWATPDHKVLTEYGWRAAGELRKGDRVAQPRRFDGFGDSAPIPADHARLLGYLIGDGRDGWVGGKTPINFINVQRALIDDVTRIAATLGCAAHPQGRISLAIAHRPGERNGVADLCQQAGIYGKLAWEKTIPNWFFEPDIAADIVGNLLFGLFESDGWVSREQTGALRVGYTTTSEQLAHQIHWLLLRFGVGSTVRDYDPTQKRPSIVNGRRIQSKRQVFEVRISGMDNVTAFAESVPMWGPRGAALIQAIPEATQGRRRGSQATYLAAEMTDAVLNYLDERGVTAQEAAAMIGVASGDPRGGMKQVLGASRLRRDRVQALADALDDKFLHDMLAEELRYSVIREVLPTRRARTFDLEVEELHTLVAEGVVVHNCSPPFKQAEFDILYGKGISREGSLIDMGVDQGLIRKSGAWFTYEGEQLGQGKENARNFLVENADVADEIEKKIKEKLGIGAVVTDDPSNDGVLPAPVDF
Assay: Fluorescence Cell-Free Homogeneous Dose Retest to Identify Inhibitors of RecA-Intein Splicing Activity. [Related pubchem assays (depositor defined):AID2097, AID2223, AID489010, AID492950]
Format: functional
Activity calls are given as the source filed them.
Catalogue of EC50 values

O=C(O)c1ccc(-n2c(=O)c3ccccc3c3ccccc3c2=O)cc1 = 70.7 µM (active)
O=C(N/N=C/c1ccc([N+](=O)[O-])o1)c1ccccc1NS(=O)(=O)c1cccs1 = 125 µM (active)
Cc1[nH]c2ccccc2c1CCNC(=O)c1ccc2c(c1[N+](=O)[O-])C(=O)c1ccccc1C2=O = 3.26 µM (active)
Cc1cc2nc(Sc3c([N+](=O)[O-])nc(C)n3Cc3ccccc3)[nH]c2cc1C = 7.56 µM (active)

With those in mind, consider the next compound.
Task: Give a short answer stating reported EC50 for O=S(=O)(CCSc1nc2ccccc2s1)c1nc2ccccc2s1 .
Result: 2.22 µM (active)
